Kindly supply the reported IC50 (nM), IgGs values for the records listed here.
- TESTED TARGET: human MMP-12 (human, UniProt P39900 106-470, limits assumed)
- Sequence (P39900 106-470 limits assumed): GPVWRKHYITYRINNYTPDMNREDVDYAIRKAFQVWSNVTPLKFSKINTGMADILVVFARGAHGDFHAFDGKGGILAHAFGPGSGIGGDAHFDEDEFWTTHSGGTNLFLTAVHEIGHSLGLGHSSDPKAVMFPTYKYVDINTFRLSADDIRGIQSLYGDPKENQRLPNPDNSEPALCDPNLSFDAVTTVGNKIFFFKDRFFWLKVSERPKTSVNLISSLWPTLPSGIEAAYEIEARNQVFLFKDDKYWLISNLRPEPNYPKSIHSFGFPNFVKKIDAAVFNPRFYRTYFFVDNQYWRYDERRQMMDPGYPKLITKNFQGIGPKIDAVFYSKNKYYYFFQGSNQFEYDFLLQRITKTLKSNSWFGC
- TEST: cell-based or functional assay
Write down the numeric answer in nM and omit the unit.

Could you tell me which IC50 (nM), IgGs is on file for 539A-M0013-H06 IgG (antibody, V domains shown) VH: EVQLLESGGGLVQPGGSLRLSCAASGFTFSAYEMDWVRQAPGKGLEWVSGISSSGGPTYYADSVKGRFTISRDNSKNTLYLQMNSLRAEDTAVYYCARVGGWELLQDYYYYMDVWGKGTTVTVSS VL: DIQMTQSPATLSLSPGERATLSCRASHSVDNLAWYQQQPGQAPRLLIYDVSYRATGIPARFSGSGSGTDFTLTISSLEPEDFAVYYCQQRNNWPLSLTFGGGTKVEIK ?
5.3

Do the same for 539A-M0016-A11 IgG (antibody, V domains shown, also called M0016-A11 IgG a-huMMP12) VH: EVQLLESGGGLVQPGGSLRLSCAASGFTFSEYQMAWVRQAPGKGLEWVSSIYPSGGHTHYADSVKGRFTISRDNSKNTLYLQMNSLRAEDTAVYYCAKESYYDFWSGYYFDYWGQGTLVTVSS VL: DIQMTQSPSSLSASVRDRVTITCRTSQNINTYLNWYYQAPGRAPKLLIFGVSSLHRGVSSRFSGSGDGTEFTLTISSLQPEDIGTYFCQQSYSSPWTFGQGTKVEIK please
2.1

# iterate: 539A-M0014-G11 IgG (antibody, V domains shown) VH: EVQLLESGGGLVQPGGSLRLSCAASGFTFSWYVMVWVRQAPGKGLEWVSSIYSSGGPTKYADSVKGRFTISRDNSKNTLYLQMNSLRAEDTAVYYCAKEGGVYGGPELYYYYYGMDVWGQGTTVTVSS VL: QYELTQPPSASGTPGQRITISCSGSSSNLGSNPVQWYQQLPGSAPKLLIHTNTHRPSGVPDRFSGSKSVTSASLAISGLQSEDEAEYYCATWDDSLNGGVFGGGTKLTVL
12.3

Now consider 539A-M0020-B01 IgG (antibody, V domains shown) VH: EVQLLESGGGLVQPGGSLRLSCAASGFTFSHYVMHWVRQAPGKGLEWVSYIGSSGGETRYADSVKGRFTISRDNSKNTLYLQMNSLRAEDTAVYYCARADYGDYDYYYYYGMDVWGQGTTVTVSS VL: QYELTQPPSVSVAPGQTATITCEGNNIASKSVHWYQQKPGQAPVLVVYDDRDRPSGISERISGSNSGNTPTLTIFRVEAGDEADYYCQVSDSATDHRVFGGGTKLTVL .
34.6
